FYI, the data here is from patent US7598258B2.

targetEntity: mouse c-fms (Mus musculus)
Construct: Macrophage-like cell line BAC-1.2F5 which expresses c-fms as a M-CSF receptor on cell membranes; endogenous in cells
Sequence (P09581 20-977): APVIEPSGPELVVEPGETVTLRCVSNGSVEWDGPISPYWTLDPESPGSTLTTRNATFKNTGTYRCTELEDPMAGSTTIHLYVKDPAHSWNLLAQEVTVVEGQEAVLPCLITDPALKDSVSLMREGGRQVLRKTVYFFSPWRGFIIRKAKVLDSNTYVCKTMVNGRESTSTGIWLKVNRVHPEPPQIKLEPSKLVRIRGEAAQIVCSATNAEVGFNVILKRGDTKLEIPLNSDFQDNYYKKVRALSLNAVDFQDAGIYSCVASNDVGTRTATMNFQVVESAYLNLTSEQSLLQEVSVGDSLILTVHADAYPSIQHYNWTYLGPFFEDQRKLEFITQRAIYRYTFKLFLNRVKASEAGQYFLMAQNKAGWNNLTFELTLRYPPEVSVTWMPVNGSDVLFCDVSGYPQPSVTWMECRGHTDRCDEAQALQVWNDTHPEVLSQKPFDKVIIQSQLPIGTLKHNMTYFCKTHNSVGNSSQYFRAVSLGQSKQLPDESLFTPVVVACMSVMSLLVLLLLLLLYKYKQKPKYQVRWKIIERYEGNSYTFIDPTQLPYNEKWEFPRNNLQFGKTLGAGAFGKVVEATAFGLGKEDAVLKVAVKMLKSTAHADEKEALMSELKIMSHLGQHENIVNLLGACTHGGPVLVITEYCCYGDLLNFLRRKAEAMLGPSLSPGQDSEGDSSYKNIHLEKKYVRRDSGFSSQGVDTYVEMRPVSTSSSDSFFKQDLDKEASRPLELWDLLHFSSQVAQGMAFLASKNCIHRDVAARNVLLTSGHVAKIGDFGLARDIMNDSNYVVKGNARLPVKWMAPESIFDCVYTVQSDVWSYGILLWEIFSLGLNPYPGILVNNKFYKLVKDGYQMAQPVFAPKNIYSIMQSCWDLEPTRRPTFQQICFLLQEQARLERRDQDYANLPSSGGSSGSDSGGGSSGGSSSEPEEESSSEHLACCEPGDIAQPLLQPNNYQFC
assayName: Inhibition of c-fms autophosphorylation in macrophage-like cell line BAC-1.2F5 by M-CSF stimulation (ELISA)
assayContext: BAC-1.2F5 cells, human recombinant M-CSF 50 ng/ml, read-out: c-fms autophosphorylation 50% inhibitory concentration (IC50)
pIC50: −log10 of the molar value.
property: pIC50

>>> df
                                   molecule  endpointvalue
0  COc1cc2nccc(Oc3ccc(NC(=O)N[C@@H](C)c4ccccc4OC)cc3)c2cc1OC [Example 51]           8.12

[1] COc1cc(Oc2ccnc3cc(OC)c(OC)cc23)ccc1NC(=O)N[C@@H](C)c1nccs1 [Example 75]
[2] COc1cc(Oc2ccnc3cc(OC)c(OC)cc23)ccc1NC(=O)N[C@H](C)c1cccc(Br)c1 [Example 59]
Lab log: flag the item ( 1 or 2 ) with the smaller pIC50 figure. Choose, then provide that item's label.
2

[1] COc1cc2nccc(Oc3ccc(NC(=O)N[C@H](C)c4ccc(F)cc4)cc3)c2cc1OC [Example 3]
[2] COc1cc(Oc2ccnc3cc(OC)c(OC)cc23)ccc1NC(=O)NC(C)c1ncc(C)s1 (centres unmarked) [Example 105]
[3] COc1cc2nccc(Oc3ccc(NC(=O)N[C@@H](C)c4nccs4)cc3OC)c2cc1OC [Example 81]
[4] COc1cc2nccc(Oc3ccc(NC(=O)N[C@H](C)c4cccc(Br)c4)c(C)c3)c2cc1OC [Example 58]
Sequence the entries by pIC50, beginning with the highest number. Use the labels to give the ranking in the order requested.
1, 3, 2, 4
(1: 8.62, 3: 8.21, 2: 7.90, 4: 7.09)

[1] COc1cc2nccc(Oc3cc(C)c(NC(=O)N[C@@H](C)c4nccs4)cc3C)c2cc1OC [Example 86]
[2] COc1cc(Oc2ccnc3cc(OC)c(OC)cc23)ccc1NC(=O)NC(C)c1ccc(F)cc1 (centres unmarked) [Example 16]
[3] COc1cc2nccc(Oc3ccc(NC(=O)N[C@@H](C)c4ccc(Br)cc4)cc3)c2cc1OC [Example 34]
Returns the items ordered by pIC50, from maximum to minimum. The response must list the labels following the requested ordering.
2, 3, 1

[I] COc1cc(Oc2ccnc3cc(OC)c(OC)cc23)ccc1NC(=O)NC(C)c1nc(C)c(C)s1 (centres unmarked) [Example 99]
[II] COc1cc2nccc(Oc3ccc(NC(=O)N[C@H](C)c4cccc(Br)c4)c(F)c3)c2cc1OC [Example 63]
Of I and II , which one carries the higher reported pIC50? # answer = label of selected item
I
(I: 7.90, II: 7.51)

---

targetEntity: mouse c-fms (Mus musculus)
Construct: Macrophage-like cell line BAC-1.2F5 which expresses c-fms as a M-CSF receptor on cell membranes; endogenous in cells
assayName: Inhibition of c-fms autophosphorylation in macrophage-like cell line BAC-1.2F5 by M-CSF stimulation (ELISA)
assayContext: BAC-1.2F5 cells, human recombinant M-CSF 50 ng/ml, read-out: c-fms autophosphorylation 50% inhibitory concentration (IC50)
pIC50: −log10 of the molar value.
property: pIC50

Below, each entry is followed by its recorded pIC50 result.
>>> print(df.to_string())
                                   compound  endpointvalue
0  COc1cc(Oc2ccnc3cc(OC)c(OC)cc23)ccc1NC(=O)NC(C)c1nccs1 (centres unmarked) [Example 74]           8.30
1  COc1cc2nccc(Oc3ccc(NC(=O)NC(C)c4nccs4)cc3OC)c2cc1OC (centres unmarked) [Example 80]           8.21
2  COc1cc2nccc(Oc3ccc(NC(=O)N[C@H](C)c4ccc(F)cc4)c(F)c3)c2cc1OC [Example 30]           8.51

[P] COc1cc2nccc(Oc3ccc(NC(=O)NC(C)c4nc(C)cs4)cc3F)c2cc1OC (centres unmarked) [Example 89]
[Q] COc1cc2nccc(Oc3ccc(NC(=O)NC(C)c4ccc(F)cc4)c(C)c3C)c2cc1OC (centres unmarked) [Example 25]
Recorded pIC50 values differ for P and Q ; which one is higher? Answer = label.
P
(P: 8.51, Q: 7.66)
